# credit: the Human Domainome abundance scans (Beltran et al. 2025)

B1: Intersectin-1, residues 909 to 971; numbered along this chain, Q15811 (parent)
chain: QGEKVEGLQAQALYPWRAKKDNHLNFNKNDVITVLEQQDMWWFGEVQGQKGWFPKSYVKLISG

# Variants of: B1
# experiment_description: abundance fitness (aPCA) (normalised: wild type 0, dead -1); higher = more abundant; growth selection in yeast, the domain comes from the species named
# protocol_conditions: Homo sapiens
Rule: abundance fitness under -0.1 gives Condition not met, otherwise Condition met.

Consider the following illustrative entries.
{"columns": ["variant_description", "class_name"],
 "data": [
  ["E36K", "Condition met"],
  ["Q37K", "Condition met"],
  ["L24W", "Condition not met"],
  ["E45K", "Condition not met"]
]}

hey, is abundance fitness for this one >= -0.1? W41F
Condition not met

Answer whether abundance fitness of A18Y is greater than or equal to -0.1.
Condition not met

Is the recorded value of abundance fitness equal to or greater than -0.1 for this variant? A10E
Condition not met

Could you tell me if the measured abundance fitness of W16C reaches -0.1 or more?
Condition not met
